Below, each entry is listed with its recorded CC50.
# method: in vitro
# experimentalConditions: human

[
  {
    "structureSmilesString": "CCOc1nc(N)nc2sc(Cc3ccc(F)cc3)nc12",
    "reportedRelation": ">",
    "CC50, µM": 411
  },
  {
    "structureSmilesString": "CCOC(=O)Cc1nc(N2CCN(C(=O)COc3ccc(Cl)cc3)CC2)c2cc(-c3ccc(F)cc3)sc2n1",
    "reportedRelation": "=",
    "CC50, µM": 159
  },
  {
    "structureSmilesString": "Nc1nc(N2CCN(c3nccs3)CC2)c2nc(-c3ccc(F)cc3)sc2n1",
    "reportedRelation": "=",
    "CC50, µM": 36.4
  },
  {
    "structureSmilesString": "O=C(COc1ccc(Cl)cc1)N1CCN(c2nc(-c3ccccc3)nc3sc(-c4ccc(F)cc4)cc23)CC1",
    "reportedRelation": ">",
    "CC50, µM": 224
  },
  {
    "structureSmilesString": "Nc1nc(N2CCN(S(=O)(=O)c3ccccc3)CC2)c2nc(-c3ccc(F)cc3)sc2n1",
    "reportedRelation": "=",
    "CC50, µM": 237
  },
  {
    "structureSmilesString": "Nc1nc(N2CCN(C(=O)COc3ccc(Cl)cc3)CC2)c2nc(CCc3ccc(F)cc3)sc2n1",
    "reportedRelation": ">",
    "CC50, µM": 50
  },
  {
    "structureSmilesString": "Cc1nc(N2CCN(C(=O)COc3ccc(Cl)cc3)CC2)c2nc(Cc3ccc(F)cc3)oc2n1",
    "reportedRelation": "=",
    "CC50, µM": 33
  },
  {
    "structureSmilesString": "Cc1nc(N2CCN(C(=O)COc3ccc(Cl)cc3)CC2)c2cc(-c3ccc(F)cc3)sc2n1",
    "reportedRelation": "=",
    "CC50, µM": 208
  }
]

* * *

# method: in vitro
# experimentalConditions: human

[
  {
    "molecule": "Nc1nc(N2CCN(C(=O)COc3ccc(Cl)cc3)CC2)c2nc(-c3ccc(F)cc3)oc2n1 [Example 169]",
    "unitsOfMeasure": "µM",
    "reportedRelation": ">",
    "CC50": 50
  },
  {
    "molecule": "Nc1nc(N2CCOCC2)c2cc(-c3ccc(F)cc3)sc2n1 [Example 364]",
    "unitsOfMeasure": "µM",
    "reportedRelation": "=",
    "CC50": 239
  },
  {
    "molecule": "Nc1nc(N2CCN(C(=O)CCOc3ccc(F)cc3)CC2)c2nc(CCc3ccc(F)cc3)sc2n1 [Example 55]",
    "unitsOfMeasure": "µM",
    "reportedRelation": "=",
    "CC50": 57.1
  },
  {
    "molecule": "CCOC(=O)c1nc(N2CCN(C(=O)COc3ccc(Cl)cc3)CC2)c2cc(-c3ccc(F)cc3)sc2n1 [Example 353]",
    "unitsOfMeasure": "µM",
    "reportedRelation": "=",
    "CC50": 68.5
  },
  {
    "molecule": "CSc1nc(N)nc2sc(-c3ccc(F)cc3)nc12 [Example 16]",
    "unitsOfMeasure": "µM",
    "reportedRelation": "=",
    "CC50": 82.1
  },
  {
    "molecule": "COc1ccc(OCC(=O)N2CCN(c3nc(N)nc4sc(CCc5ccc(F)cc5)nc34)CC2)cc1 [Example 50]",
    "unitsOfMeasure": "µM",
    "reportedRelation": "=",
    "CC50": 212
  },
  {
    "molecule": "Nc1nc(N2CCN(C(=O)COc3ccc(Cl)cc3)CC2)c2nc(-c3ccc(F)cc3)sc2n1 [Example 45]",
    "unitsOfMeasure": "µM",
    "reportedRelation": "=",
    "CC50": 149
  },
  {
    "molecule": "Cc1nc(N2CCN(C(=O)COc3ccc(Cl)cc3)CC2)c2nc(-c3ccc(F)cc3)oc2n1 [Example 168]",
    "unitsOfMeasure": "µM",
    "reportedRelation": ">",
    "CC50": 50
  }
]
